Below, each of the variants is paired with its reported screen value value.
B1: MBOAT1 peptide 17-32 (Lysophospholipid acyltransferase 1), 16-mer library wild type / NSP3 ADRP (ORF1ab Nsp3b ADRP, residues 1023-1192) (parent)
chain 1: STYLHPLSELLGIPLD
chain 2: not shown

# Variants of: B1
# test-settings: with NSP3 ADRP (ORF1ab Nsp3b ADRP, residues 1023-1192); bait immobilised on MaxiSorp plates (10 µg), library pre-cleared on GST, 2 h binding at 4 °C, five washes; one round per day, days 1-4; value from days 2 and 3; keep out of graded; scale: average fractional NGS count over selection days 2 and 3
# respond with the number and nothing more

Example entries and their recorded answers appear below.
mutation-string	assay-result
chain 1 L15V	0.000529
chain 1 Y3S	2.54e-05
chain 1 S1G	0.00039

Item: chain 1 T2V | screen value: 0.000388

Item: chain 1 L11H | screen value: 0

Item: chain 1 I13Q | screen value: 0.00199

Item: chain 1 S1Q | screen value: 0.000187

Item: chain 1 T2K | screen value: 0
